This collection of values is drawn from patent US11426375B2.

Set-up: species or system Sprague Dawley rats
measurement parameters: rat, in vivo, po, 10 mg/kg
experimental endpoint: tolerability

>>> df
                                   compound       endpoint_value
0  CCOC(=O)[C@H](C)C[C@@H](Cc1ccc(-c2ccccc2)cc1)NC(=O)CCC(=O)N[C@@H](CCCCN)C(=O)O [Compound I-2]  very well tolerated
1  CCOC(=O)[C@H](C)C[C@@H](Cc1ccc(-c2ccccc2)cc1)NC(=O)CCC(=O)N[C@@H](CC(C)C)C(=O)O [Compound I-1]  very well tolerated
2  CCOC(=O)[C@H](C)C[C@@H](Cc1ccc(-c2ccccc2)cc1)NC(=O)CCC(=O)O [AHU377]  very well tolerated
3  CCOC(=O)[C@H](C)C[C@@H](Cc1ccc(-c2ccccc2)cc1)NC(=O)CCC(=O)N[C@@H](CCCCN)C(=O)OC(C)(C)C [Compound I-3]  very well tolerated
